All figures here come from ChEMBL document CHEMBL1201862.

Biological target: Protein RecA (Mycobacterium tuberculosis)
Assay: Fluorescence Cell-Free Homogeneous Dose Retest to Identify Inhibitors of RecA-Intein Splicing Activity. [Related pubchem assays (depositor defined):AID2097, AID2223, AID489010, AID492950]
Format: functional
Calls of active or inactive are those of the source.
Classes used: active, inactive

molecular-string: O=C1/C(=N/c2ccc(O)cc2)C(Cl)=C(O)c2ccccc21
group: active
//
molecular-string: Cc1ccc(S(=O)(=O)N(C(=O)c2ccncc2)c2ccc(OC(=O)c3ccncc3)c3ccccc23)c(C)c1
group: active
//
molecular-string: CC(C)N(c1ccccc1)c1ccc(NC(=O)CCl)cc1
group: active
//
molecular-string: O=C(CCl)Nc1ccc(N2CCCCCC2)cc1
group: active
//
molecular-string: Cc1c(C#N)c(NC(=O)CCl)n(Cc2ccccc2)c1C
group: active
//
molecular-string: CCOC(=O)c1oc2nc(CC(C)C)c3c(c2c1N)CCC3
group: inactive
//
molecular-string: O=c1[nH]cc(/N=C/c2cc([N+](=O)[O-])ccc2O)c(=O)[nH]1
group: active
//
molecular-string: CC1=NN(c2ccc(Cl)c(C(=O)O)c2)C(=O)C1
group: active
//
molecular-string: CCCCCCCCOC(=O)c1c(CSC(=N)N)n(C)c2cc(Br)c(OC(C)=O)cc12
group: active
//
molecular-string: CC1=NN(c2ccccc2)C(=O)/C1=C/c1cc2ccccc2[nH]1
group: active

###

Documented EC50 across a set of compounds
Molecular target: Short transient receptor potential channel 4 (Mus musculus, UniProt Q9QUQ5)
Sequence (Q9QUQ5 whole entry): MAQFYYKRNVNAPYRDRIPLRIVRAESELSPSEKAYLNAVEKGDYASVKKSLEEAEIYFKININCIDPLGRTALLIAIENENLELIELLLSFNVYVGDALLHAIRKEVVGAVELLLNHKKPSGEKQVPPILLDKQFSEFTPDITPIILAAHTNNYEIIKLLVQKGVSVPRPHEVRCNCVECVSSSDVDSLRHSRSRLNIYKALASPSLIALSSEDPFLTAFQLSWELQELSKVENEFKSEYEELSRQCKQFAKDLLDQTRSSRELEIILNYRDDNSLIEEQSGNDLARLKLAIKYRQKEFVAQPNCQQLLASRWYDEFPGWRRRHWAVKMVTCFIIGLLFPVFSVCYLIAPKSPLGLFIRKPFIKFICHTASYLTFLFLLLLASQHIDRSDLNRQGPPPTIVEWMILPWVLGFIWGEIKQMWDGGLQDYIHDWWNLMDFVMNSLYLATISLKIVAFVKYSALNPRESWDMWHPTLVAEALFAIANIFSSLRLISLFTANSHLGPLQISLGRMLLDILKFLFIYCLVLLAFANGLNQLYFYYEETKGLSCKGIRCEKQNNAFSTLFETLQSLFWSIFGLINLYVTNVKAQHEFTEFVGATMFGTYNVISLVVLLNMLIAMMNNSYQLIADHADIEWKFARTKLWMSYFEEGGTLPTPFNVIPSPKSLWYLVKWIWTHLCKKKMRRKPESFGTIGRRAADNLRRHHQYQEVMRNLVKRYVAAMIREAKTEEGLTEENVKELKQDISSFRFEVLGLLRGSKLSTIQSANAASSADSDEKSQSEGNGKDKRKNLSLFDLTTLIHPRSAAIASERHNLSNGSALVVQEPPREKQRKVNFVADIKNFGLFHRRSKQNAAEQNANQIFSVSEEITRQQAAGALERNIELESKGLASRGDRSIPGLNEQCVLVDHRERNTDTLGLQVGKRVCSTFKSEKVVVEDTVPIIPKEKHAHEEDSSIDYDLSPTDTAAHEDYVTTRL
Assay: block of DAMGO-driven TRPC4 calcium entry – cell-based, HEK293 TRPC4/mu-opioid, Fluo-4 calcium, dose response (AID 434942);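 further: potency of inhibitors blocking the TRPC4 calcium response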
Format: functional
Active and inactive are the calls of the source.

compound: CCOc1ccccc1-n1c(SCC(=O)Nc2nccs2)nnc1-c1ccoc1C
EC50: 1500 nM (active)

compound: Cc1cccc(N2CCN(Cc3ccoc3)CC2)c1C
EC50: 668 nM (active)

compound: Cc1ccc(C)c2c(N)c3c(nc12)CCCCC3.O=C(O)c1cncc(Br)c1
EC50: 944 nM (active)

compound: Cc1ccc(S(=O)(=O)NCCC(=O)NCC(c2ccco2)N2CCCCC2)cc1C (stereo not given)
EC50: 168 nM (active)

compound: O=C(CSc1nc(=O)n(CCN2CCOCC2)c2c1CCC2)Nc1ccc(OC(F)(F)F)cc1
EC50: 7500 nM (active)

###

Molecular target: Heat shock factor protein 1 (Mus musculus, UniProt P38532)
Sequence (P38532 whole entry): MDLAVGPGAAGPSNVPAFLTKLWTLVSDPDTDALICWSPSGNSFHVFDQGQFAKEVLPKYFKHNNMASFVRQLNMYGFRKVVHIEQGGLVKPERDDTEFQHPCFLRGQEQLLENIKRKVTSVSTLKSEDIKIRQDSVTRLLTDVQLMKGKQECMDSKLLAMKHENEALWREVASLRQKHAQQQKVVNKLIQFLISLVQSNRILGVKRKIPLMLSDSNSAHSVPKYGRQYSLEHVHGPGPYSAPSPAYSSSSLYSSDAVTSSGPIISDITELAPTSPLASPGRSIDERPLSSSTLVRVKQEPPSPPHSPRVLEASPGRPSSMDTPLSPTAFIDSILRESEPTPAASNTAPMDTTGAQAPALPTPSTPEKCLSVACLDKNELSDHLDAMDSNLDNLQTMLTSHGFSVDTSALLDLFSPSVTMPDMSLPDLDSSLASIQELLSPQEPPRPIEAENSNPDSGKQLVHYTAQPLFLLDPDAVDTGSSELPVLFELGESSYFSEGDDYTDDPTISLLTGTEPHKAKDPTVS
Experiment: decrease of HSF1-responsive luciferase luminescence – cell-based, NIH3T3, dose retest, confirmation (AID 2382);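 further: NIH3T3 fibroblasts with HSF1-driven luciferase reporter stressed by proteasome inhibitor MG132; luminescence from HSF1-driven luciferase expression after 8 hours of MG132 stress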
Assay type: functional
Active and inactive are the calls of the source.

molecular-string: CN(C(=O)CCNC(=O)Cn1cnc2ccccc2c1=O)c1ccccc1F
EC50: > 195 µM (not active)
--
molecular-string: O=C(N/N=C/c1ccc(O)cc1)c1[nH]c2ccc(Br)cc2c1-c1ccccc1
EC50: 11.4 µM (active)
--
molecular-string: CCc1ccc(C2=NN=C(Nc3cccc(S(=O)(=O)N(C)C)c3)SC2)cc1
EC50: > 195 µM (not active)
--
molecular-string: COc1ccccc1Nc1nc(NCCCN(C)C)nc(N)c1[N+](=O)[O-]
EC50: > 195 µM (not active)
--
molecular-string: COc1ccc(Br)cc1CNC(=O)CCN1C(=O)COc2ccccc21
EC50: > 195 µM (not active)

###

Below, each of the compounds is paired with its reported IC50 value.
Target: Polyadenylate-binding protein 1 (Homo sapiens)
Sequence (P11940 whole entry): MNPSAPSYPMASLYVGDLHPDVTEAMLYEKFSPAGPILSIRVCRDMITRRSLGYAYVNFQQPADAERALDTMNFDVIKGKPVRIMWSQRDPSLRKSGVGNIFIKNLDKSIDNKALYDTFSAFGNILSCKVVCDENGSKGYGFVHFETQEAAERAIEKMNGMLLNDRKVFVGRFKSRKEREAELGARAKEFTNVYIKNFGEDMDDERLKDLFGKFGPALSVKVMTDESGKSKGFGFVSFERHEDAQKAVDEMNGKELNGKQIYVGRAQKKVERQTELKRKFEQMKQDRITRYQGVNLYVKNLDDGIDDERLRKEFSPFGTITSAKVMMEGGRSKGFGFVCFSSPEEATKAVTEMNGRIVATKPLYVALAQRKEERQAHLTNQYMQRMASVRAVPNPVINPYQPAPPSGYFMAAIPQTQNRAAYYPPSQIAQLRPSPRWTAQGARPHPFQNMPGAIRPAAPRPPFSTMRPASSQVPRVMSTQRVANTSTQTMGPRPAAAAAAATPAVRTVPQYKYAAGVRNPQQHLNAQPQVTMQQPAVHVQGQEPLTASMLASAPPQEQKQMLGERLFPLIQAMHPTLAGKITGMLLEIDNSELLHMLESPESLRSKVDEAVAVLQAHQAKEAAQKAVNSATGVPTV
Assay: MLLE binding blockers, Cy5 peptide tracer – biochemical, fluorescence polarization, Cy5-PAM2 peptide, secondary, miRNA deadenylation inhibitor project, dose response (AID 602260)
Assay type: functional
Settings: read-out: IC50_Mean
Calls of active or inactive are those of the source.

molecular-string: CC(=O)c1cccc(NC(=S)NC(=O)c2ccccc2Br)c1
system-tested: Polyadenylate-binding protein 1 (Homo sapiens)
IC50: > 66 µM (inactive)
//
molecular-string: Cc1cc(O)c(-c2cc(O)c(C)cc2O)cc1O
system-tested: Polyadenylate-binding protein 1 (Homo sapiens)
IC50: > 66 µM (inactive)
//
molecular-string: Cc1ccc2nc(-c3cccnc3)c(NC3CCCCC3)n2c1
system-tested: Polyadenylate-binding protein 1 (Homo sapiens)
IC50: 41.4 µM (inactive)
//
molecular-string: COc1ccc(NC(=O)Nc2sc(NS(=O)(=O)c3ccccc3)nc2C)cc1
system-tested: Polyadenylate-binding protein 1 (Homo sapiens)
IC50: > 66 µM (inactive)
//
molecular-string: CCc1c(O)nc(SCc2nc(O)c3ccccc3n2)nc1O
system-tested: Polyadenylate-binding protein 1 (Homo sapiens)
IC50: > 66 µM (inactive)
//
molecular-string: O=C(Cn1sc2ccccc2c1=O)NC12CC3CC(CC(C3)C1)C2
system-tested: Polyadenylate-binding protein 1 (Homo sapiens)
IC50: > 66 µM (inactive)
//
molecular-string: O=C1C=C(O)c2cccc3cccc1c23
system-tested: Polyadenylate-binding protein 1 (Homo sapiens)
IC50: 33.1 µM (inactive)
//
molecular-string: O=C(NCSc1ccccc1)c1ccccc1
system-tested: Polyadenylate-binding protein 1 (Homo sapiens)
IC50: > 66 µM (inactive)
//
molecular-string: CCC(=O)/C=C1/Sc2ccc(OC)cc2N1CCO
system-tested: Polyadenylate-binding protein 1 (Homo sapiens)
IC50: > 66 µM (inactive)

###

Listed compounds paired with reported AC50
Molecular target: Heat shock protein HSP 90-alpha (Homo sapiens, UniProt P07900)
Type: functional, organism-based
The source made the active and inactive calls.

compound: CC(NC(=O)c1ccc(Br)cc1)c1ccc2c(c1)CCCC2 (configuration not stated)
AC50: 2.75 µM (active)

compound: Oc1c(C(Nc2nccs2)c2ccc(C(F)(F)F)cc2)ccc2cccnc12 (configuration not stated)
AC50: 3.69 µM (active)

compound: Cc1sc2nc(C3CC3)nc(SCC(=O)NCc3ccco3)c2c1C
AC50: 5.75 µM (active)

compound: CSC(=S)NN=C(C)c1cccc(C)n1
AC50: 23.7 µM (active)

compound: O=C1CC(c2ccccc2)=NN1c1nc(-c2ccccc2)cs1
AC50: 3.34 µM (active)

compound: O=C(C=P(c1ccccc1)(c1ccccc1)c1ccccc1)c1ccccc1-c1ccccc1C(=O)C=P(c1ccccc1)(c1ccccc1)c1ccccc1
AC50: 8.19 µM (active)

compound: CCCCCCCCCCCCCCCC[n+]1cccc2ccccc21
AC50: 2.87 µM (active)

###

Experiment: viability of uninfected HEp-2 cells – cell-based, HTS, cytotoxicity control for RSV inhibitor project, dose response (AID 2410)
Type: functional
Details: human respiratory syncytial virus
The source made the active and inactive calls.

compound: O=S(=O)(Nc1cccc(-c2ccc(N3CCCCCC3)nn2)c1)c1ccccc1F
CC50: > 50 µM (active)
//
compound: CCn1c2ccccc2c2cc(NC(=O)C(C)Oc3ccc(OC)cc3)ccc21 (centres undefined)
CC50: > 50 µM (active)
//
compound: CC(/C=C/c1ccccc1)=N\NC(=O)C1CC1(C)c1ccccc1 (centres undefined)
CC50: 32 µM (active)
//
compound: Cc1ccc(NC2c3ncccc3C(=O)N2Cc2ccc(F)cc2)cc1 (centres undefined)
CC50: > 50 µM (active)

###

A collection of compounds and their measured EC50
Test: Luminescence Cell-Based Dose Response HTS to Identify Inhibitors of 5'UTR Stem-Loop Driven Prion Protein mRNA Translation in H4 Neuroglioblastoma Cells. [Related pubchem assays: 1827 (Project Summary), 1813 (Primary HTS)]
Format: functional
Calls of active or inactive are those of the source.

compound: COc1cccc2c1C(=O)c1c(O)c3c(c(O)c1C2=O)C[C@](O)(C(C)=O)C[C@H]3O[C@@H]1C[C@@H](N)[C@@H](O)[C@@H](C)O1
EC50: 0.102 µM (active)
--
compound: COc1ccc(OC)c(N/C=C/C(=O)c2ccccc2)c1
EC50: 1.35 µM (active)
--
compound: COc1ccc(C2c3ccc4ccccc4c3Oc3ncn(CCN4CCOCC4)c(=N)c32)cc1OC (stereo unspecified)
EC50: 33.4 µM (active)
--
compound: CCCCn1c(SCC(=O)N2c3ccccc3CCc3ccccc32)nc2c1c(=O)n(C)c(=O)n2C
EC50: 14.2 µM (active)
--
compound: N=C(N)N/N=C/c1ccc(OCc2ccc(Cl)cc2Cl)cc1
EC50: > 120 µM (not active)
--
compound: O=C(Cn1c2ccccc2c(=O)c2ccccc21)N/N=C/c1ccc(N2CCCC2)c([N+](=O)[O-])c1
EC50: 7.94 µM (active)

###

Target: Endoribonuclease toxin MazF (Escherichia coli K-12, UniProt P0AE70)
Sequence (P0AE70 whole entry): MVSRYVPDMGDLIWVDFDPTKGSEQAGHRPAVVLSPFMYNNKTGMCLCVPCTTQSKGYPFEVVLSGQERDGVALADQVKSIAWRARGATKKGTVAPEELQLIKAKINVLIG
Assay: substrate-only fluorescence increase artefacts – biochemical, single-stranded RNase substrate, counter-screen for MazEF activator project, dose response (AID 588502)
Type: functional
Active and inactive are the calls of the source.
Labels: T (active), F (inactive)

compound: Oc1cc2c(cc1O)C1c3ccc(O)c(O)c3OCC1(O)C2 (centres undefined)
system-tested: Endoribonuclease toxin MazF (Escherichia coli K-12, UniProt P0AE70)
group: F
//
compound: N#Cc1ccc(N2C(=O)[C@@H]3C(C(=O)c4ccc5ccccc5n4)=NN[C@@H]3C2=O)cc1
system-tested: Endoribonuclease toxin MazF (Escherichia coli K-12, UniProt P0AE70)
group: T
//
compound: CCOC(=O)/C(=N\Nc1ccc(C(C)=O)cc1)c1csc(Nc2ccccc2)n1
system-tested: Endoribonuclease toxin MazF (Escherichia coli K-12, UniProt P0AE70)
group: F
//
compound: Cc1ccccc1Cn1cccc1/C=C1/C(=N)N2C=CSC2=NC1=O
system-tested: Endoribonuclease toxin MazF (Escherichia coli K-12, UniProt P0AE70)
group: F
